Conditions: 20.0 µM
quantityName: relative solubility at 20 uM
Numbers only.

[
  {
    "compound": "O=S(=O)(NC1(Cc2ccccc2)CCOCC1)c1cccnc1",
    "quantityName": "relative solubility at 20 uM",
    "readoutNumber": 1
  },
  {
    "compound": "Cc1ccc(NC(=O)Nc2cccnc2)s1",
    "quantityName": "relative solubility at 20 uM",
    "readoutNumber": 1
  },
  {
    "compound": "COC(=O)C(c1ccccc1Cl)N1CCC2SC(=O)C=C2C1 (stereo unspecified)",
    "quantityName": "relative solubility at 20 uM",
    "readoutNumber": 0.82
  }
]

Hi, could you look up relative solubility at 20 uM for each item in my list?
1. NC(=O)C1CCN(c2nnc(C3CCC(=O)N3)n2CCc2cc(F)cc(F)c2)CC1 (stereo unspecified)
2. Cc1nnc(NC(=O)Cc2cccc(Cl)c2F)n1C
3. C=CC(=O)N(c1cc(C(C)(C)C)on1)C(C(=O)NCCc1cccc(F)c1)c1cncc(Cl)c1 (stereo unspecified)
4. O=C(CCl)Nc1cccc(N2CCCC2=O)c1
5. C=CC(=O)N(c1ccc(C(C)OC)cc1)C(C(=O)Nc1c(C)cccc1CC)c1cccnc1 (stereo unspecified)
6. O=C(NCCc1ccc2c(c1)CCO2)NCc1cccc(N2C(=O)NC3(CCCC3)C2=O)c1

[1, 1.01, 0.97, 1, 0.96, 0.95]

Answer for every listed entry: what is its relative solubility at 20 uM? The entries follow.
1. Cc1ccncc1NC(=O)CCc1ccc(F)cc1
2. N#CCN1CCN(Cc2cc(Cl)cc3ccccc23)CC1

1: 1; 2: 0.91

Recorded values, source the COVID Moonshot data (paper PMC11187573).
